- System: MCF7
- method: Antiproliferative activity against human MCF7 cells assessed as growth inhibition after 72 hrs by MTT assay
- Assay type: functional, cell-based
- conditions used: MCF7, 72 h
So I've got a bunch of molecules here, and I need their IC50 values.
Answers are plain numbers, in nM.

Example results:
COc1cc(-c2nc(N)sc2-c2ccc3ccccc3c2)cc(OC)c1OC	51.2
CCOc1ccc(-c2sc(N)nc2-c2cc(OC)c(OC)c(OC)c2)cc1Cl	14.1
COc1cccc(-c2sc(N)nc2-c2cc(OC)c(OC)c(OC)c2)c1	476
COc1ccc(-c2sc(N)nc2-c2cc(OC)c(OC)c(OC)c2)cc1	60.9
COc1ccc(-c2sc(N)nc2-c2cc(OC)c(OC)c(OC)c2)cc1C	58.7

Hi, could you look up IC50 for each item in my list?
1. COc1cc(-c2nc(N)sc2-c2cc3ccccc3s2)cc(OC)c1OC
2. COc1cc(-c2nc(N)sc2-c2ccc(C)cc2)cc(OC)c1OC
3. CCOc1ccc(-c2sc(N)nc2-c2cc(OC)c(OC)c(OC)c2)cc1
4. COc1ccc(-c2sc(N)nc2-c2cc(OC)c(OC)c(OC)c2)cc1F
5. COc1ccc(-c2sc(N)nc2-c2cc(OC)c(OC)c(OC)c2)cc1Cl
6. CCc1ccc(-c2sc(N)nc2-c2cc(OC)c(OC)c(OC)c2)cc1

1. 47
2. 280
3. 44
4. 18.6
5. 27.3
6. 117

For each of the items listed, what is its IC50?
1. COc1cc(-c2nc(N)sc2-c2ccc(C(F)(F)F)cc2)cc(OC)c1OC
2. COc1ccc(-c2sc(N)nc2-c2cc(OC)c(OC)c(OC)c2)cc1OC

[0.4, 1170]
